src = PubChem BioAssay AID248

Test system: L1210 leukemia ip in BDF1 mice, survival T/C
Experiment: NCI In Vivo Anticancer Drug Screen. Data for tumor model L1210 Leukemia (intraperitoneal) in B6D2F1 (BDF1) mice
Settings: endpoint: mean survival time; dose: 100.0 mg/kg/injection; schedule: Q01DX001 (ip); vehicle: Klucel (hydroxypropylcellulose) (HPC); higher = longer survival
Inconclusive results and toxic doses are left out.
MEASURED_ATTRIBUTE: T/C

# COMPOUND, REPORTED
records = [
    ("COc1ccc(OC2CCCCC2OS(C)(=O)=O)cc1 (configuration not stated)", "104 % of control"),
    ("Cc1ccc(-n2c(=O)c(N=Nc3ccccc3C)c(O)n(-c3ccccc3Cl)c2=S)cc1", "94 % of control"),
    ("O=S(=O)(OCC#CCOS(=O)(=O)c1cccs1)c1cccs1", "109 % of control"),
    ("Nc1cccc(OCCCn2cc(-c3ccc(Cl)c(Cl)c3)c(N)nc2=O)c1", "99 % of control"),
    ("CSCC1OC(n2nnc3c(N)ncnc32)C(O)C1O (configuration not stated)", "100 % of control"),
    ("CN(CCCN1C(=O)c2ccccc2C1=O)c1ccc(NS(=O)(=O)c2ccc([N+](=O)[O-])cc2)cc1", "100 % of control"),
    ("CCOC(=O)c1[nH]c(C)c(CCC(=O)O)c1C", "97 % of control"),
    ("CN(C1=CC(=O)C(=O)c2ccccc21)c1ccccc1", "97 % of control"),
    ("COc1ccc(NC(=O)Nc2onc(C)c2C)c(Cl)c1", "95 % of control"),
    ("NC(C(=O)O)c1ccccc1Cl (configuration not stated)", "92 % of control"),
    ("CCOC(=O)C(C#N)(CC/C(C)=N/Nc1ccc([N+](=O)[O-])cc1[N+](=O)[O-])C(C)COC(C)=O (configuration not stated)", "94 % of control"),
    ("COC1=C2CCCCC2=[N+]2CCc3ccccc3C2C1 (configuration not stated)", "93 % of control"),
    ("COC12C3C=CC4C(C=C3)C4C1C2Br (configuration not stated)", "98 % of control"),
    ("Nc1cc(Cl)c([N+](=O)[O-])c(N)n1", "101 % of control"),
    ("Cc1cc2cccc(CN)c2cc1C", "93 % of control"),
    ("CCN1C(=O)Cc2ccccc21", "98 % of control"),
    ("CCCCCCSc1nccnc1C", "95 % of control"),
    ("COc1cc(C)c2oc(C)nc2c1", "92 % of control"),
    ("O=c1c2[nH]c3cccc(Cl)c3c2cnn1-c1ccc(F)cc1", "96 % of control"),
    ("CCC1(C)C(=O)N(Br)C(=O)N1Br (configuration not stated)", "106 % of control"),
    ("Nc1nc(N)c2c(n1)SCC(/C=N/O)=N2", "108 % of control"),
    ("COc1ccccc1N=Nc1c(O)n(-c2ccccc2C)c(=S)n(-c2ccccc2OC)c1=O", "109 % of control"),
]

* * *

Item-by-item account of T/C
Tested on: L1210 leukemia ip in BDF1 mice, survival T/C
Test: NCI In Vivo Anticancer Drug Screen. Data for tumor model L1210 Leukemia (intraperitoneal) in B6D2F1 (BDF1) mice
Conditions: endpoint: mean survival time; dose: 200.0 mg/kg/injection; schedule: Q01DX001 (ip); vehicle: saline with Tween-80; higher = longer survival
Toxic doses and inconclusive results are not listed.
MEASURED_ATTRIBUTE: T/C

# MOLECULE, MEASURED_ATTRIBUTE, REPORTED
data = [
    ("C#CC(OC(=O)NC(CCSC)C(=O)OC)(c1ccccc1)c1ccccc1 (stereo not drawn)", "T/C", "99 % of control"),
    ("CN(C)CC/C(=N\\Nc1ccc([N+](=O)[O-])cc1[N+](=O)[O-])c1ccccc1", "T/C", "92 % of control"),
    ("O=[N+]([O-])c1cccc(CNc2ccccc2)c1", "T/C", "95 % of control"),
]

* * *

System: L1210 leukemia ip in BDF1 mice, survival T/C
Assay: NCI In Vivo Anticancer Drug Screen. Data for tumor model L1210 Leukemia (intraperitoneal) in B6D2F1 (BDF1) mice
Settings: endpoint: mean survival time; dose: 300.0 mg/kg/injection; schedule: Q01DX001 (ip); vehicle: saline; higher = longer survival
Inconclusive results and toxic doses are left out.
Item-by-item account of T/C

# INPUT_SMILES, T/C
data = [
    ("O=c1[nH]nc(-c2ccc(C(F)(F)F)cc2)s1", "97 % of control"),
    ("CCCCCSc1nc(N)nc2nc[nH]c12", "101 % of control"),
    ("O=C1c2ccccc2C(=O)N1/N=C/c1cc(Cl)cc(Cl)c1O", "93 % of control"),
    ("CC(C)(O)CNCCCN", "102 % of control"),
]

* * *

Tested on: L1210 leukemia ip in BDF1 mice, survival T/C
Test: NCI In Vivo Anticancer Drug Screen. Data for tumor model L1210 Leukemia (intraperitoneal) in B6D2F1 (BDF1) mice
Settings: endpoint: mean survival time; dose: 400.0 mg/kg/injection; schedule: Q01DX001 (ip); vehicle: carboxymethylcellulose (CMC); higher = longer survival
Toxic doses and inconclusive results are not listed.
Item-by-item account of T/C

# MOLECULE, ASSAY_TARGET, T/C
data = [
    ("COc1ccccc1CN1CCCOP1(=O)Nc1ccccc1 (stereo not given)", "L1210 leukemia ip in BDF1 mice, survival T/C", "93 % of control"),
    ("O=C(Oc1ccc(N=Cc2ccc3c(c2)OCO3)cc1)Oc1ccc(N=Cc2ccc3c(c2)OCO3)cc1", "L1210 leukemia ip in BDF1 mice, survival T/C", "93 % of control"),
    ("S=C(N/N=C\\c1ccc(Cl)cc1Cl)Nc1ccc2cn[nH]c2c1", "L1210 leukemia ip in BDF1 mice, survival T/C", "91 % of control"),
    ("O=C1c2ccccc2-c2cc(Br)c(NC(=O)C(Cl)Cl)cc21", "L1210 leukemia ip in BDF1 mice, survival T/C", "98 % of control"),
    ("Cc1ccc(S(=O)(=O)Nc2c(C)cc([N+](=O)[O-])cc2C)cc1", "L1210 leukemia ip in BDF1 mice, survival T/C", "100 % of control"),
    ("O=C(Cc1ccccc1)NCCc1ccc(-c2ccccc2)cc1", "L1210 leukemia ip in BDF1 mice, survival T/C", "86 % of control"),
    ("O=C1COC2CCCCC2O1 (stereo not given)", "L1210 leukemia ip in BDF1 mice, survival T/C", "106 % of control"),
    ("CCOCCOCCCNCC(=O)N1CCN(C(=O)CNCCCOCCOCC)CC1", "L1210 leukemia ip in BDF1 mice, survival T/C", "103 % of control"),
    ("CN(C)c1c(-c2ccc(Cl)cc2)cc(-c2ccccc2)[nH]c1=O", "L1210 leukemia ip in BDF1 mice, survival T/C", "91 % of control"),
    ("CC1NC(=O)NC1CCCCCC(=O)O (stereo not given)", "L1210 leukemia ip in BDF1 mice, survival T/C", "97 % of control"),
    ("O=S(=O)([O-])CC[n+]1ccc(-c2ccccc2)o1", "L1210 leukemia ip in BDF1 mice, survival T/C", "97 % of control"),
    ("COc1ccc2ccccc2c1Br", "L1210 leukemia ip in BDF1 mice, survival T/C", "98 % of control"),
    ("c1cc2c3c(cccc3c1)-c1nc3ccccc3nc1-2", "L1210 leukemia ip in BDF1 mice, survival T/C", "88 % of control"),
    ("Cc1ccccc1NP1(=O)OCCCN1Cc1ccc(Cl)c(Cl)c1 (stereo not given)", "L1210 leukemia ip in BDF1 mice, survival T/C", "93 % of control"),
    ("O=c1oc2c(CN3CCCCC3)c(O)ccc2c2c1CCCC2", "L1210 leukemia ip in BDF1 mice, survival T/C", "93 % of control"),
    ("CCOc1ccc2nc(/C=C/c3ccccc3)ccc2c1", "L1210 leukemia ip in BDF1 mice, survival T/C", "101 % of control"),
    ("O=C(O)c1c(O)cc(=O)oc1-c1ccc(Cl)cc1", "L1210 leukemia ip in BDF1 mice, survival T/C", "100 % of control"),
    ("CCCCCCCCC1OCC(C)(C)C(C(C)C)O1 (stereo not given)", "L1210 leukemia ip in BDF1 mice, survival T/C", "104 % of control"),
    ("CCCCCCCC/C=C\\CCCCCCCCOB(OCCCCCCCC/C=C/CCCCCCCC)OCCCCCCCC/C=C/CCCCCCCC", "L1210 leukemia ip in BDF1 mice, survival T/C", "102 % of control"),
    ("Nc1ccc2c(c1)/C(=N/O)c1cc(Cl)ccc1-2", "L1210 leukemia ip in BDF1 mice, survival T/C", "100 % of control"),
]
